Each recorded value in this set is attributed to patent US20240279318A1.

- target-desc: T1, AFP158/HLA-A*02:01 complex (human)
- T1 construct: flowed as analyte in SPR
- protocol-notes: SPR, crude scFv captured, pMHC analyte;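 note: pMHC analyte injected at three concentrations, association phase of one hundred seconds, then running buffer for dissociation, rates fitted from both curves, KD derived from the rates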
# reported Kd; entries follow

{"binder": "AS170036 VL1VH1-56N98Q (scFv, also called 06-AS170036 VL1VH1-56N98Q) scFv: QSALTQPRSVSGSPGQSVTISCAGTSSDVGSENYVSWYQQHPGKAPKLMIYQVNKRASGVPDRFSGSKSGNTASLTISGLQAEDEADYYCASYRSSDQNIVFGGGTKLTVLGGGGSGGGGSGGGGSEVQLVESGGGLVQPGGSLRLSCAASGFTFSSYAMSWVRQAPGKGLEWVSTINSGTNSPYYADSVKGRFTISRDNSKNTLYLQMNSLRAEDTAVYYCAKNFFDGSWFLGPPAMDYWGQGTLVTVSSHHHHHH", "Kd": "23 nM"}
{"binder": "AS170036 VL1VH1-98F108D (scFv, also called 32-AS170036 VL1VH1-98F108D) scFv: QSALTQPRSVSGSPGQSVTISCAGTSSDVGSENYVSWYQQHPGKAPKLMIYQVNKRASGVPDRFSGSKSGNTASLTISGLQAEDEADYYCASYRSSDFNIVFGGGTKLTVLGGGGSGGGGSGGGGSEVQLVESGGGLVQPGGSLRLSCAASGFTFSSYAMSWVRQAPGKGLEWVSTINSGTGSPYYADSVKGRFTISRDNSKNTLYLQMNSLRAEDTAVYYCAKNFFDGSWFLDPPAMDYWGQGTLVTVSSHHHHHH", "Kd": "13 nM"}
{"binder": "AS170036 VL1VH1-57M108D (scFv, also called 29-AS170036 VL1VH1-57M108D) scFv: QSALTQPRSVSGSPGQSVTISCAGTSSDVGSENYVSWYQQHPGKAPKLMIYQVNKRASGVPDRFSGSKSGNTASLTISGLQAEDEADYYCASYRSSDHNIVFGGGTKLTVLGGGGSGGGGSGGGGSEVQLVESGGGLVQPGGSLRLSCAASGFTFSSYAMSWVRQAPGKGLEWVSTINSGTGMPYYADSVKGRFTISRDNSKNTLYLQMNSLRAEDTAVYYCAKNFFDGSWFLDPPAMDYWGQGTLVTVSSHHHHHH", "Kd": "19 nM"}
{"binder": "AS170036 VL1VH1-98Q108D (scFv, also called 38-AS170036 VL1VH1-98Q108D) scFv: QSALTQPRSVSGSPGQSVTISCAGTSSDVGSENYVSWYQQHPGKAPKLMIYQVNKRASGVPDRFSGSKSGNTASLTISGLQAEDEADYYCASYRSSDQNIVFGGGTKLTVLGGGGSGGGGSGGGGSEVQLVESGGGLVQPGGSLRLSCAASGFTFSSYAMSWVRQAPGKGLEWVSTINSGTGSPYYADSVKGRFTISRDNSKNTLYLQMNSLRAEDTAVYYCAKNFFDGSWFLDPPAMDYWGQGTLVTVSSHHHHHH", "Kd": "14 nM"}
{"binder": "AS170036 VL1VH1-57K98Q (scFv, also called 12-AS170036 VL1VH1-57K98Q) scFv: QSALTQPRSVSGSPGQSVTISCAGTSSDVGSENYVSWYQQHPGKAPKLMIYQVNKRASGVPDRFSGSKSGNTASLTISGLQAEDEADYYCASYRSSDQNIVFGGGTKLTVLGGGGSGGGGSGGGGSEVQLVESGGGLVQPGGSLRLSCAASGFTFSSYAMSWVRQAPGKGLEWVSTINSGTGKPYYADSVKGRFTISRDNSKNTLYLQMNSLRAEDTAVYYCAKNFFDGSWFLGPPAMDYWGQGTLVTVSSHHHHHH", "Kd": "16 nM"}
